Numbers sourced from ChEMBL document CHEMBL4118154.

System tested: CYP2D6 (Homo sapiens, UniProt P10635)
Sequence (P10635 whole entry): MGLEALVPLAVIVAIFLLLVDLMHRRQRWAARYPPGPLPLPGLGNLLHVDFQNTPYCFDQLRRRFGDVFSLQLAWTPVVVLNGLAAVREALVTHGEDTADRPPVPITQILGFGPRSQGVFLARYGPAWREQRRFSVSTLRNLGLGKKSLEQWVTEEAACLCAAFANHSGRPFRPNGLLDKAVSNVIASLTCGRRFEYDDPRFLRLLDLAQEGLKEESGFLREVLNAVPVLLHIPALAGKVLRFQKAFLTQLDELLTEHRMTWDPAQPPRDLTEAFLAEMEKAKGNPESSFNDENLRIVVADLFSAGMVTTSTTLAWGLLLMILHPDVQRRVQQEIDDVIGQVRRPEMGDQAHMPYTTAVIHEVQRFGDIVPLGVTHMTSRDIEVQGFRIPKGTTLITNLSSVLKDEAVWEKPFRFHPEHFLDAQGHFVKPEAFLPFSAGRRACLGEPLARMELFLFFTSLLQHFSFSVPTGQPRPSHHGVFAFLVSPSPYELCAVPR
Procedure summary: Inhibition of CYP2D6 (unknown origin) at 1 uM relative to control
Type: ADME
Readout label: inhibition at 1 µM (%)

Example entries and their recorded answers appear below.
Substance smiles	Readout label	U	Recorded measurement
C[C@@H](N[C@H]1CCN(c2ccc(C(=O)O)cc2)C1)c1cccc2ccccc12	inhibition at 1 µM	%	14.1
C[C@@H](N[C@H]1CCN(c2cccc(OC(F)(F)F)c2)C1)c1cccc2ccccc12	inhibition at 1 µM	%	88.4
C[C@@H](N[C@@H]1CCN(c2cccc(OC(F)(F)F)c2)C1)c1cccc2ccccc12	inhibition at 1 µM	%	61.2
C[C@@H](N[C@H]1CCN(c2ccc(C(=O)NCCO)cc2)C1)c1cccc2ccccc12	inhibition at 1 µM	%	3.4
C[C@@H](N[C@@H]1CCCN(c2cccc(OC(F)(F)F)c2)C1)c1cccc2ccccc12	inhibition at 1 µM	%	82.6
C[C@@H](N[C@H]1CCCN(c2cccc(OC(F)(F)F)c2)C1)c1cccc2ccccc12	inhibition at 1 µM	%	86.4

A. C[C@@H](N[C@@H]1CCN(c2cccc(C(F)(F)F)c2)C1)c1cccc2ccccc12
B. C[C@@H](N[C@H]1CCN(c2cccc(C(F)(F)F)c2)C1)c1cccc2ccccc12
[Q] Please indicate which entry, A or B , has the lower recorded inhibition at 1 µM value. // respond with label for picked entry
[A] A

###

Procedure summary: Oral bioavailability in rat at 1 mg/kg
Type: ADME, organism-based
Applied conditions: in vivo
Readout label: bioavailability (%)
Give the quantity in %, number only.

[Q] Name the reported bioavailability value associated with the compound "C[C@@H](N[C@H]1CCN(c2ccc(CC(=O)O)cc2)C1)c1cccc2ccccc12.Cl.Cl"
[A] 84.2

###

Procedure summary: Cmax in rat at 1 mg/kg, po
Format: ADME, organism-based
Parameters: dose 1 mg/kg, route oral
Applied conditions: in vivo
Readout label: Cmax (ng/mL)
Give the quantity in ng/mL, number only.

[Q] Name the reported Cmax value associated with the compound "C[C@@H](N[C@H]1CCN(c2ccc(CC(=O)O)cc2)C1)c1cccc2ccccc12.Cl.Cl"
[A] 2190

###

Procedure summary: Total clearance in monkey at 0.3 mg/kg, iv
Assay type: ADME, organism-based, Macaca mulatta
Applied conditions: rhesus monkey, in vivo
Readout label: clearance (mL/min/kg)
Give the quantity in mL/min/kg, number only.

[Q] Name the reported clearance value associated with the molecule "C[C@@H](N[C@H]1CCN(c2ccc(CC(=O)O)cc2)C1)c1cccc2ccccc12.Cl.Cl"
[A] 5.37

###

System tested: CYP2D6 (Homo sapiens)
Procedure summary: Inhibition of CYP2D6 (unknown origin) at 10 uM relative to control
Format: ADME
Readout label: inhibition at 10 µM (%)

Example entries and their recorded answers appear below.
Substance smiles	U	Recorded measurement
C[C@@H](N[C@H]1CCCN(c2cccc(OC(F)(F)F)c2)C1)c1cccc2ccccc12	%	92.5
C[C@@H](N[C@H]1CCN(c2ccc(-c3nn[nH]n3)cc2)C1)c1cccc2ccccc12	%	75.3
C[C@@H](N[C@H]1CCN(c2ccc(C(=O)O)cc2)C1)c1cccc2ccccc12	%	14.1
C[C@@H](N[C@H]1CCN(c2ccc(OC(F)(F)F)cc2)C1)c1cccc2ccccc12	%	79.8
C[C@@H](N[C@@H]1CCCN(c2cccc(C(F)(F)F)c2)C1)c1cccc2ccccc12	%	87.6

I. C[C@@H](N[C@@H]1CCCN(c2cccc(OC(F)(F)F)c2)C1)c1cccc2ccccc12
II. C[C@@H](N[C@H]1CCN(c2ccc(C(=O)NCCO)cc2)C1)c1cccc2ccccc12
[Q] Please indicate which entry, I or II , has the lower recorded inhibition at 10 µM value. // respond with label for picked entry
[A] II

###

Procedure summary: Intrinsic clearance in rat liver microsomes assessed per protein
Format: ADME, microsome
Applied conditions: read-out: CLH
Readout label: microsomal CLint (µL/min/mg)

Example entries and their recorded answers appear below.
Substance smiles	microsomal CLint / µL/min/mg
C[C@@H](N[C@H]1CCCN(c2cccc(OC(F)(F)F)c2)C1)c1cccc2ccccc12	442
C[C@@H](N[C@@H]1CCCN(c2cccc(OC(F)(F)F)c2)C1)c1cccc2ccccc12	231
C[C@@H](N[C@H]1CCN(c2cccc(C(F)(F)F)c2)C1)c1cccc2ccccc12	370

a. C[C@@H](N[C@H]1CCN(c2ccc(CC(=O)O)cc2)C1)c1cccc2ccccc12.Cl.Cl
b. C[C@@H](N[C@H]1CCN(c2ccc(C(=O)NCCO)cc2)C1)c1cccc2ccccc12
c. C[C@@H](N[C@@H]1CCN(c2cccc(C(F)(F)F)c2)C1)c1cccc2ccccc12
[Q] Order the items by recorded microsomal CLint; the first position goes to the largest value. Answer format: the labels, in the requested order.
[A] b, c, a
(b: 667 µL/min/mg, c: 302 µL/min/mg, a: 34 µL/min/mg)

###

System tested: CYP2D6 (Homo sapiens)
Procedure summary: Inhibition of CYP2D6 (unknown origin) at 0.1 uM relative to control
Format: ADME
Readout label: inhibition at 0.1 µM (%)

Substance smiles	System tested	Recorded measurement
C[C@@H](N[C@@H]1CCCN(c2cccc(OC(F)(F)F)c2)C1)c1cccc2ccccc12	CYP2D6 (Homo sapiens)	54

P. C[C@@H](N[C@@H]1CCCN(c2cccc(C(F)(F)F)c2)C1)c1cccc2ccccc12
Q. C[C@@H](N[C@H]1CCN(c2ccc(OC(F)(F)F)cc2)C1)c1cccc2ccccc12
[Q] Parameter check: reported inhibition at 0.1 µM is higher for which label, P or Q ? // respond with label for picked entry
[A] P
(P: 54.8%, Q: 15.8%)
